// provenance: patent US9518026B2

target: TgCDPK1 (Toxoplasma gondii, UniProt Q9BJF5); test: biochemical; conditions: Table 1; KinaseGlo, Syntide 2 peptide substrate; read-out: TgCDPK1 IC50
Sequence (Q9BJF5 1-507): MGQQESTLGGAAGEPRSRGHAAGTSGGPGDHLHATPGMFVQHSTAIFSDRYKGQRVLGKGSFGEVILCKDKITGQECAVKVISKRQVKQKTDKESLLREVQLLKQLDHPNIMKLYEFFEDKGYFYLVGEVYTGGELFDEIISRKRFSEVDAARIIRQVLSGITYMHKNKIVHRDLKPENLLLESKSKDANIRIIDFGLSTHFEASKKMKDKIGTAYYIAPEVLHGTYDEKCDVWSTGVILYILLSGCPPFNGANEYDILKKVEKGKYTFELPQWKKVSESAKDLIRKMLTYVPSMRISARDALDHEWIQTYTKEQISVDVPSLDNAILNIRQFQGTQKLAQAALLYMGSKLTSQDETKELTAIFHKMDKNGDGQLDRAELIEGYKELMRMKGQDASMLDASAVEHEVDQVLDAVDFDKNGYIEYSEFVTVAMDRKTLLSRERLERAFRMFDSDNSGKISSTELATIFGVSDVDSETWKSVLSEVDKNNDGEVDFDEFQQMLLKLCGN
So I've got a bunch of compounds here, and I need their pIC50 values.
Lab note — pIC50 values are minus log10 of concentrations in M.

Query block: Write down the reported pIC50 of `CCOc1ccc2cc(-c3nn4c(c3C(N)=O)NC(=O)C4)cnc2c1` , test system: TgCDPK1 (Toxoplasma gondii, UniProt Q9BJF5).
Result block: 5.84

Query block: Request: `NC(=O)c1c(-c2cnc3cc(OC4CCC4)ccc3c2)nn(C2CCCC2)c1N`
Result block: 7.92

Query block: Request: `NC(=O)c1c(-c2cnc3cc(OC4CCC4)ccc3c2)nn(C2CCCCC2)c1N`
Result block: 7.72

Query block: Request: CCOc1ccc2cc(-c3nn(C(C)C(C)O)c(N)c3C(N)=O)cnc2c1 (centres unmarked)
Result block: 7.72

Query block: Request: CCOc1ccc2cc(-c3nn(C(C)C(C)(C)CO)c(N)c3C(N)=O)cnc2c1 (centres unmarked)
Result block: 7.92

Query block: Request: `CC(C)(C)n1nc(-c2ccc3nc(OC4CCC4)ccc3c2)c(C(N)=O)c1N`
Result block: 8.30

Query block: Request: `NC(=O)c1c(-c2ccc3nc(OC4CCC4)ccc3c2)nn(C2CCCCC2)c1N`
Result block: 7.80

Query block: Request: `CCOc1ccc2cc(-c3nn(CCOC)c(N)c3C(N)=O)cnc2c1`
Result block: 6.49

Query block: Request: CCOc1ccc2cc(-c3nn(C(C)CO)c(N)c3C(N)=O)cnc2c1 (centres unmarked)
Result block: 7.70

Query block: Request: `CCOc1ccc2cc(-c3nn(C4CCCCCC4)c(N)c3C(N)=O)ccc2n1`
Result block: 8.15
